As shown below, each of these compounds has a reported inhibition at 0.01 µM value.
Biological target: CXCR1 (Homo sapiens)
Construct: endogenous in cells; host or cells: human polymorphonucleate leukocytes (PMNs) isolated from blood of healthy volunteers
Sequence (P25024 whole entry): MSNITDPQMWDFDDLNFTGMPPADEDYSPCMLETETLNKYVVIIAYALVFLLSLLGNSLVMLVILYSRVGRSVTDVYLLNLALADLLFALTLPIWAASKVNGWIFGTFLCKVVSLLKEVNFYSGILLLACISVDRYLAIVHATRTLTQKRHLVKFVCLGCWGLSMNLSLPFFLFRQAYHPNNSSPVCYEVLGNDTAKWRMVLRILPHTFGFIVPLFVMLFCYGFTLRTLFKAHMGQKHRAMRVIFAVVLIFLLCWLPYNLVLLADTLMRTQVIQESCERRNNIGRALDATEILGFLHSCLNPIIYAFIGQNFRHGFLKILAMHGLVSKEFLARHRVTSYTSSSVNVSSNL
Test: IL-8 induced PMN chemotaxis (CXCR1)
Assay type: cell-based
Conditions: compound c = 10^−8 M; IL-8 induced human PMN chemotaxis

See these solved cases before continuing.
Field inhibition at 0.01 µM (entry CC(=O)c1ccc(CC(=O)O)n1C ) reads 60%

Field inhibition at 0.01 µM (entry Cc1cc(CC(C)C)ccc1CC(=O)O ) reads 60%

***
Field inhibition at 0.01 µM (entry Cc1cc(NS(=O)(=O)C(F)(F)F)ccc1CC(=O)NS(C)(=O)=O ) reads 60%
